// provenance: ChEMBL document CHEMBL5356992

# Tested on: Klebsiella pneumoniae
# procedure-summary: Potency index, ratio of nitazoxanide MIC to test compound MIC for antibacterial activity against Klebsiella pneumoniae ATCC 10031
# Assay type: functional
recorded-metric: Ratio

• Cc1ccc2c(c1)C(=O)C(=O)N2Cc1cn(-c2ccc(C(=O)Nc3ncc([N+](=O)[O-])s3)c(O)c2)nn1 = <=20
• COC(=O)c1cn(-c2ccc(C(=O)Nc3ncc([N+](=O)[O-])s3)c(O)c2)nn1 = <=20
• CN1CCN(Cc2cn(-c3ccc(C(=O)Nc4ncc([N+](=O)[O-])s4)c(O)c3)nn2)CC1 = <=20
• O=C(Nc1ncc([N+](=O)[O-])s1)c1ccc(-n2cc(CN3C(=O)C(=O)c4cc(Br)ccc43)nn2)cc1O = <=20

----------
# Test system: RAW264.7
# procedure-summary: Cytotoxicity against mouse RAW264.7 cells at 25 ug/ml incubated for 48 hrs by MTT assay
# Format: toxicity, cell-based
# condition-context: raw264.7, 48 h, at 25 µg/mL
recorded-metric: Cell growth inhibition (%)
Respond numerically; units are % and should not be typed.

Task item: Read the entry O=C(O)c1cn(-c2ccc(C(=O)Nc3ncc([N+](=O)[O-])s3)c(O)c2)nn1 and write its reported Cell growth inhibition.
Reply: 27.5

Task item: Query Cell growth inhibition for [N-]=[N+]=Nc1ccc(C(=O)Nc2ncc([N+](=O)[O-])s2)c(O)c1
Reply: 28.53

Task item: Supply reported Cell growth inhibition belonging to this compound: Cc1ccc(-c2cn(-c3ccc(C(=O)Nc4ncc([N+](=O)[O-])s4)c(O)c3)nn2)cc1
Reply: 27.6

Task item: Please indicate Cell growth inhibition recorded for CC(=O)Oc1cc(N=[N+]=[N-])ccc1C(=O)Nc1ncc([N+](=O)[O-])s1
Reply: 17.54

Task item: Give a short answer stating reported Cell growth inhibition for CC(=O)Oc1ccccc1C(=O)Nc1ncc([N+](=O)[O-])s1 [NITAZOXANIDE] .
Reply: 20.65

----------
# procedure-summary: Selectivity index, ratio of cytotoxicity against mouse RAW264.7 cells to MIC for Mycobacterium tuberculosis H37Rv
# Format: toxicity, cell-based
# condition-context: read-out: Selectivity Index
Record form. Attribute: selectivity ratio. Fill in for each entry.

Task item: Kindly indicate its recorded selectivity ratio. Item: O=C(O)c1cn(-c2ccc(C(=O)Nc3ncc([N+](=O)[O-])s3)c(O)c2)nn1
Reply: 1

Task item: Using the record for CC(=O)Oc1ccccc1C(=O)Nc1ncc([N+](=O)[O-])s1 [NITAZOXANIDE] , state its measured selectivity ratio.
Reply: 4

Task item: Let me know recorded selectivity ratio for [N-]=[N+]=Nc1ccc(C(=O)Nc2ncc([N+](=O)[O-])s2)c(O)c1 , thanks.
Reply: 8

Task item: Fill in selectivity ratio for record Cc1ccc(-c2cn(-c3ccc(C(=O)Nc4ncc([N+](=O)[O-])s4)c(O)c3)nn2)cc1
Reply: 1

Task item: Indicate its recorded selectivity ratio; the compound in question is CC(=O)Oc1cc(N=[N+]=[N-])ccc1C(=O)Nc1ncc([N+](=O)[O-])s1
Reply: 16
